Quick reference: protein stability index of the listed items.
- PROCEDURE TEXT: protein stability index of a GFP-peptide fusion (yeast GPS) (PSI 1-4); higher = more stable; sorted into four equal gates, so the index is relative within each strain
- ASSAY CONTEXT: san1∆
REPORTED ENDPOINT: protein stability index

| SEQUENCE TEXT | REPORTED ENDPOINT | EXPERIMENTAL VALUE |
| --- | --- | --- |
| PSLEKSSFTFGSTTIEK [YLR335W/NUP2] | protein stability index | 1.66 |
| INVLTDQNPIQVVVDAI [RPS5] | protein stability index | 2.44 |
| ARYNWICNPVHKHREAR [RPL15B] | protein stability index | 2.36 |
| YRKTEGIFEKAKAKAVT [YMR153W/NUP53] | protein stability index | 2.65 |
| KDQALIGTINSIVHINS [SIR2] | protein stability index | 1.75 |
| QPTGLLKGLNGFPSAPQ [YMR153W/NUP53] | protein stability index | 3.25 |
| GNGKLSEHFLYLAKELN [RPN1] | protein stability index | 2.42 |
